System: HCT-116 colon
RUN_DESCRIPTION: NCI tumour cell line growth inhibition, 48 h
REPORTED_ENDPOINT: TGI

# TGI lookup, item CC(C)C12Cc3c(ccc4ccccc34)OC1(C)Oc1ccc3ccccc3c1C2 (configuration not stated)
> 100 µM

New cases:
Look at this compound and give its reported TGI. CN(C)CCN1C(=O)c2cccc3cc([N+](=O)[O-])cc(c23)C1=O
6.7 µM

What value of measured TGI is listed for CC(CC(N)C(=O)O)C(=O)O (configuration not stated) ?
> 100 µM

# lookup: TGI of O=C1/C(=C/c2ccccc2)CN(C(=O)C(Cl)Cl)C/C1=C\c1ccccc1
0.527 µM
